Below, each entry is listed alongside its reported Kd.
Target: T1, NativeRPtag(large)_with_Tags_and_Cys (Thermoanaerobacter tengcongensis)
T1 construct: Unlabeled in anisotropy assays; coupled through the engineered N-terminal Cys to SulfoLink agarose or maleimide plates in column, pull-down and ELISA assays
T1 chain: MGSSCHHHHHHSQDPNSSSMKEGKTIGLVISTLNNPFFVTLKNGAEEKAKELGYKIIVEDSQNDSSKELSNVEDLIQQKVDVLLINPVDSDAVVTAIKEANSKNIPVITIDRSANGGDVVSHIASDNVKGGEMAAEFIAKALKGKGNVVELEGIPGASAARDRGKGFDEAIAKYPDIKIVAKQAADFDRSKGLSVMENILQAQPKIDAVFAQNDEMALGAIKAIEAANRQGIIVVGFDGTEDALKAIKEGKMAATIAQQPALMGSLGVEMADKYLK
Assay: fluorescence anisotropy; PG (50%)
No end group written: not given here. *: point of attachment. RhodamineB = CCN(CC)c1ccc2c(-c3ccccc3C(=O)*)c3ccc(=[N+](CC)CC)cc-3oc2c1
Quick reminder: number only, in nM, skip the unit.

- binder: "RhodamineB-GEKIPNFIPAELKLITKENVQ (Synthetic peptide) [native RPtag(small)]"
  Kd [nM]: 19

Problem: Quick check: Kd of RhodamineB-KIANFIPAELKLITKANVQ (also: also used unlabeled as competitor, Rhodamine labeled in the Kd assays; also called RPtag(small) (tight)) [RPtag(small) Nd2, p5a, e18a] ?
Result: 49
